Listing: IC50 of selected molecules
- SYSTEM UNDER TEST: Substance-P receptor (Rattus norvegicus, UniProt P14600)
- Sequence (P14600 whole entry): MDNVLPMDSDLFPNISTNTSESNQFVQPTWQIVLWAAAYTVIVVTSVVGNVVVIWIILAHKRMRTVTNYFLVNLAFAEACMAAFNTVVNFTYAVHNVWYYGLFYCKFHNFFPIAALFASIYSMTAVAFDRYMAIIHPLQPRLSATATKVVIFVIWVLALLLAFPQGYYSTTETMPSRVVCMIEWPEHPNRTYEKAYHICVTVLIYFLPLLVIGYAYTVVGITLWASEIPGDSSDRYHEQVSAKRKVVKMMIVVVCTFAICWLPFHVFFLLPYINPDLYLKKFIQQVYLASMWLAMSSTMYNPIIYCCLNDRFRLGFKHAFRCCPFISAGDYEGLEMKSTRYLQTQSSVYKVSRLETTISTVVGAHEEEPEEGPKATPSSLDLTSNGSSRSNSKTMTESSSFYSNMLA
- PROCEDURE TEXT: Concentration required to inhibit the specific binding of [125I]BH-SP to Neurokinin-1 (NK-1) receptor in rat brain synaptosomes
Non-standard residues stand in square brackets, D forms with d. Residues, ends and D or L forms follow the SMILES beside them. Dip = N[C@H](C(=O)O)C(c1ccccc1)c1ccccc1

MOLECULE	IC50
CSCC[C@H](NC(=O)[C@H](CC(C)C)NC(=O)[C@@H]1CCCN1C(=O)[C@@H](NC(=O)[C@H](Cc1ccccc1)NC(=O)[C@H](CCC(N)=O)NC(=O)[C@H](CCC(N)=O)NC(=O)[C@@H]1CCCN1C(=O)[C@H](CCCCN)NC(=O)[C@@H]1CCCN1C(=O)[C@@H](N)CCCN=C(N)N)C(c1ccccc1)c1ccccc1)C(N)=O (H-RPKPQQF[Dip]PLM-NH2)	2500 nM
CSCC[C@H](NC(=O)[C@H](CC(C)C)NC(=O)[C@@H]1CCCN1C(=O)[C@H](Cc1ccccc1)NC(=O)[C@H](Cc1ccccc1)NC(=O)[C@H](CCC(N)=O)NC(=O)[C@H](CCC(N)=O)NC(=O)[C@@H]1CCCN1C(=O)[C@H](CCCCN)NC(=O)[C@@H]1CCCN1C(=O)[C@@H](N)CCCN=C(N)N)C(N)=O	2.9 nM

###

Listing: EC50 of selected compounds
- Species on record: Cavia porcellus
- PROCEDURE TEXT: Effective concentration required for its inhibition of nonspecific binding to guinea pig ileal membranes
- Type: functional
ASSAY METRIC: EC50 (nM)

SMILES RECORD	RECORDED NUMBER
CSCC[C@H](NC(=O)[C@H](CC(C)C)NC(=O)CNC(=O)[C@@H](NC(=O)[C@H](Cc1ccccc1)NC(=O)[C@H](CCC(N)=O)NC(=O)[C@H](CCC(N)=O)NC(=O)[C@@H]1CCCN1C(=O)[C@H](CCCCN)NC(=O)[C@@H]1CCCN1C(=O)[C@@H](N)CCCN=C(N)N)C(c1ccccc1)c1ccccc1)C(N)=O	15
CSCC[C@H](NC(=O)[C@H](CC(C)C)NC(=O)CNC(=O)[C@H](Cc1ccccc1)NC(=O)/C(=C\c1ccccc1)NC(=O)[C@H](CCC(N)=O)NC(=O)[C@H](CCC(N)=O)NC(=O)[C@@H]1CCCN1C(=O)[C@H](CCCCN)NC(=O)[C@@H]1CCCN1C(=O)[C@@H](N)CCCN=C(N)N)C(N)=O	8.4
CSCC[C@H](NC(=O)[C@H](CC(C)C)NC(=O)CNC(=O)[C@H](CCc1ccccc1)NC(=O)[C@H](Cc1ccccc1)NC(=O)[C@H](CCC(N)=O)NC(=O)[C@H](CCC(N)=O)NC(=O)[C@@H]1CCCN1C(=O)[C@H](CCCCN)NC(=O)[C@@H]1CCCN1C(=O)[C@@H](N)CCCN=C(N)N)C(N)=O	2.8

###

- Organism: Cavia porcellus
- PROCEDURE TEXT: Effective concentration required for its inhibition of nonspecific binding to guinea pig ileal membranes
- Type: functional
pEC50: −log10 of the molar value.

SMILES RECORD	pEC50
CSCC[C@H](NC(=O)[C@H](CC(C)C)NC(=O)CNC(=O)[C@@H](NC(=O)[C@H](Cc1ccccc1)NC(=O)[C@H](CCC(N)=O)NC(=O)[C@H](CCC(N)=O)NC(=O)[C@@H]1CCCN1C(=O)[C@H](CCCCN)NC(=O)[C@@H]1CCCN1C(=O)[C@@H](N)CCCN=C(N)N)C(C)(C)C)C(N)=O	8.60
CSCC[C@H](NC(=O)[C@H](CC(C)C)NC(=O)CNC(=O)[C@H](Cc1ccccc1)NC(=O)[C@H](CCc1ccccc1)NC(=O)[C@H](CCC(N)=O)NC(=O)[C@H](CCC(N)=O)NC(=O)[C@@H]1CCCN1C(=O)[C@H](CCCCN)NC(=O)[C@@H]1CCCN1C(=O)[C@@H](N)CCCN=C(N)N)C(N)=O	8.24
